These entries and their values trace back to the OligoGym collection.

Measurement target: SLC20A1; note: reference of the scale not given here
Protocol description: pooled miR-30 sensor sort-seq; sequence = guide strand
Particulars: shRNA
Label -1 if sensor-assay potency score (higher = more potent) falls below -0.7; label 1 in every other case.

- Sequence record: "TAGCTCTTTGTACAGGCCGGAA"
  Group label: -1
- Sequence record: "TTTTCTGTCACCTAGACCCATC"
  Group label: -1
- Sequence record: "TTCTCGTTCAATTTTTCTCTTC"
  Group label: 1
- Sequence record: "TAGAGTAGAAGCCATATTGGTG"
  Group label: -1
- Sequence record: "TTGACTGAACTGGACAAGGTTC"
  Group label: 1
- Sequence record: "TAGCACAAGTAACACTTCCCTC"
  Group label: 1
- Sequence record: "TTCACGGTGCTATCTATGCTGG"
  Group label: -1
